# testTarget: Adenosine receptor A2b (Homo sapiens)
# procedureDetails: Displacement of [3H]DPCPX from human adenosine A2B receptor expressed in HEK293 cell membranes at 1 uM after 30 mins
measurementName: inhibition (%)

Below, each entry is followed by its recorded inhibition result.
CC1=C(C(=O)OC(C)C)C(C2CCCC2)N/C(=N/C#N)N1 (racemic)
11
CCOC(=O)C1=C(C)NC(=O)NC1c1cccs1 (stereo unspecified)
44
CC1=C(C(=O)OC(C)C)C(c2ccccc2)NC(=O)N1 (stereo unspecified)
2
CCOC(=O)C1=C(C)NC(=O)NC1c1ccccc1 (stereo unspecified)
2

1. CC1=C(C(=O)OC(C)C)C(C2CCCC2)NC(=O)N1 (stereo unspecified)
2. CCOC(=O)C1=C(C)N/C(=N\C#N)NC1C1CCCC1 (racemic)
Between item 1 and item 2 , which reported inhibition is smaller? Your answer should be the label of the entry you select.
1
(1: 3%, 2: 19%)
